- system: human CA-IX (Homo sapiens, UniProt Q16790)
- Construct: purchased Acro CA9-H82E3
- assay.explanation: Surface Plasmon Resonance (SPR) binding kinetics to recombinant human CA-IX (Biacore 8K, single-cycle kinetics, 1:1 binding model)
- test.conditions: Chelated Metal: Lu-175; SPR, 25° C., pH 7.4; read-out: CAIX KD
outcome.measure: Kd

Bench note, human CA-IX (Homo sapiens, UniProt Q16790): entry CC(CCC(=O)N[C@@H](CC(=O)N[C@@H](CC(=O)N1CCN(C(=O)CN2CCN(CC(=O)O)CCN(CC(=O)O)CCN(CC(=O)O)CC2)C[C@H]1C(=O)NCCn1nnc(C23CC(C(=O)Nc4nnc(S(N)(=O)=O)s4)(C2)C3)c1C(=O)O)C(=O)O)C(=O)O)(c1ccc(O)cc1)c1ccc(O)cc1.[Lu+3] [Compound 107.60] , its Kd = < 1 nM

Item NS(=O)(=O)c1nnc(NC(=O)C23CC(c4cn(CCNC(=O)[C@@H]5CN(C(=O)CN6CCN(CC(=O)O)CCN(CC(=O)O)CCN(CC(=O)O)CC6)CCN5C(=O)CNC(=O)C5(C(=O)O)CCN(C(=O)c6ccc(C7CC7)cc6)CC5)nn4)(C2)C3)s1.[Lu+3] [Compound 112.9] was tested on human CA-IX (Homo sapiens, UniProt Q16790); the reported Kd is < 1 nM

Noted Kd for CC(CCCC(=O)N1CCC(C(N)=O)(C(=O)NCC(=O)NC2(C(=O)NCCn3cc(C45CC(C(=O)Nc6nnc(S(N)(=O)=O)s6)(C4)C5)nn3)CCN(C(=O)CCOCCOCCOCCOCCOCCOCCOCCOCCNC(=O)CN3CCN(CC(=O)O)CCN(CC(=O)O)CCN(CC(=O)O)CC3)CC2)CC1)(c1ccc(O)cc1)c1ccc(O)cc1.[Lu+3] [Compound 129.5] , tested on human CA-IX (Homo sapiens, UniProt Q16790): < 1 nM

// Kd (human CA-IX (Homo sapiens, UniProt Q16790)) for CC(CCC(=O)N[C@@H](CC(=O)N[C@@H](CC(=O)NC1(CCCCn2cc(CCCC(=O)Nc3nnc(S(N)(=O)=O)s3)nn2)CCN(C(=O)OCCOCCNC(=O)CN2CCN(CC(=O)O)CCN(CC(=O)O)CCN(CC(=O)O)CC2)CC1)C(=O)O)C(=O)O)(c1ccc(O)cc1)c1ccc(O)cc1.[Lu+3] [Compound 116.2] = 1 to 2.5 nM

Hey, human CA-IX (Homo sapiens, UniProt Q16790) data for CC(CCC(=O)N[C@@H](CC(=O)N[C@@H](CC(=O)N1CCN(C(=O)CN2CCN(CC(=O)O)CCN(CC(=O)O)CCN(CC(=O)O)CC2)C[C@H]1C(=O)NCCn1cc(-c2ccc(C(=O)Nc3nnc(S(N)(=O)=O)s3)cc2Cl)nn1)C(=O)O)C(=O)O)(c1ccc(O)cc1)c1ccc(O)cc1.[Lu+3] [Compound 107.36] : Kd came out at < 1 nM

----------
- system: human CA-IX (Homo sapiens, UniProt Q16790)
- Construct: purchased Acro CA9-H82E3
- assay.explanation: Surface Plasmon Resonance (SPR) binding kinetics to recombinant human CA-IX (Biacore 8K, single-cycle kinetics, 1:1 binding model)
- test.conditions: Chelated Metal: Lu-175; SPR, 25° C., pH 7.4; read-out: CAIX KD
pKd: −log10 of the molar value.
outcome.measure: pKd

Form: molecule = Cc1c(C(=O)N[C@@H](CC(=O)N[C@@H](CC(=O)N2CCN(C(=O)CN3CCN(CC(=O)O)CCN(CC(=O)O)CCN(CC(=O)O)CC3)C[C@H]2C(=O)NCCn2cc(C34CC(C(=O)Nc5nnc(S(N)(=O)=O)s5)(C3)C4)nn2)C(=O)O)C(=O)O)n[nH]c1C(F)(F)F.[Lu+3] [Compound 109.3] ; pKd = > 9.00

response.value for NS(=O)(=O)c1nnc(NC(=O)C23CCC(c4cn(CCNC(=O)[C@@H]5CN(C(=O)CN6CCN(CC(=O)O)CCN(CC(=O)O)CCN(CC(=O)O)CC6)CCN5C(=O)CC[C@H](NC(=O)C[C@H](NC(=O)c5ccc(S(F)(F)(F)(F)F)cc5)C(=O)O)C(=O)O)nn4)(CC2)CC3)s1.[Lu+3] [Compound 109.58] (field: pKd) = > 9.00

Entry under test: CC(CCCC(=O)N1CCC(C(N)=O)(C(=O)NCC(=O)NC2(C(=O)NCCn3cc(C45CC(c6cn7nc(S(N)(=O)=O)sc7n6)(C4)C5)nn3)CCN(C(=O)CC[C@H](C(=O)O)N3CCN(CC(=O)O)CCN(CC(=O)O)CCN(CC(=O)O)CC3)CC2)CC1)(c1ccc(O)cc1)c1ccc(O)cc1.[Lu+3] [Compound 127.5] . Its pKd was > 9.00

Quick note, pKd for NS(=O)(=O)c1nnc(NC(=O)C23CCC(c4cn(CCNC(=O)[C@@H]5CN(C(=O)CN6CCN(CC(=O)O)CCN(CC(=O)O)CCN(CC(=O)O)CC6)CCN5C(=O)CC[C@H](NC(=O)C[C@H](NC(=O)CCC5CC5)C(=O)O)C(=O)O)nn4)(CC2)CC3)s1.[Lu+3] [Compound 109.48] landed at > 9.00

The molecule listed as NS(=O)(=O)c1nnc(NC(=O)C23CC(c4cn(CCNC(=O)[C@@H]5CN(C(=O)CN6CCN(CC(=O)O)CCN(CC(=O)O)CCN(CC(=O)O)CC6)CCN5C(=O)C[C@H](NC(=O)C[C@H](NC(=O)c5cnc(C6CC6)nc5)C(=O)O)C(=O)O)nn4)(C2)C3)s1.[Lu+3] [Compound 109.23] shows pKd equal to 8.00 to 8.60

Recorded result, CC(CCCC(=O)N1CCC(C(N)=O)(C(=O)NCC(=O)NC2(C(=O)NCCn3cc(C45CCC(C(=O)Nc6nnc(S(N)(=O)=O)s6)(CC4)CC5)nn3)CCN(C(=O)CN3CCN(CC(=O)O)CCN(CC(=O)O)CCN(CC(=O)O)CC3)CC2)CC1)(c1ccc(O)cc1)c1ccc(O)cc1.[Lu+3] [Compound 117.6] , pKd: > 9.00

Input NS(=O)(=O)c1nnc(NC(=O)C23CC(c4cn(CCNC(=O)[C@@H]5CN(C(=O)CN6CCN(CC(=O)O)CCN(CC(=O)O)CCN(CC(=O)O)CC6)CCN5C(=O)C[C@H](NC(=O)C[C@H](NC(=O)c5cc(C(F)(F)F)[nH]n5)C(=O)O)C(=O)O)nn4)(C2)C3)s1.[Lu+3] [Compound 109.6] . Output pKd: > 9.00

Recorded pKd (molecule CC(CCCC(=O)N1CCC(C(=O)O)(C(=O)NCC(=O)N2CCN(C(=O)CN3CCN(CC(=O)O)CCN(CC(=O)O)CCN(CC(=O)O)CC3)C[C@@H]2C(=O)NCCn2cc(C34CC(C(=O)Nc5nnc(S(N)(=O)=O)s5)(C3)C4)nn2)CC1)(c1ccc(O)cc1)c1ccc(O)cc1.[Lu+3] [Compound 107.12] ): 8.60 to 9.00

Reported pKd for NS(=O)(=O)c1nnc(NC(=O)C23CCC(c4cn(CCNC(=O)[C@@H]5CN(C(=O)CN6CCN(CC(=O)O)CCN(CC(=O)O)CCN(CC(=O)O)CC6)CCN5C(=O)CC[C@H](NC(=O)C[C@H](NC(=O)C5CC6(CCC6)C5)C(=O)O)C(=O)O)nn4)(CC2)CC3)s1.[Lu+3] [Compound 109.51] was > 9.00

CC(C)(C)c1ccc(CC(=O)N[C@@H](CC(=O)N[C@@H](CC(=O)N2CCN(C(=O)CN3CCN(CC(=O)O)CCN(CC(=O)O)CCN(CC(=O)O)CC3)C[C@H]2C(=O)NCCn2cc(C34CC(C(=O)Nc5nnc(S(N)(=O)=O)s5)(C3)C4)nn2)C(=O)O)C(=O)O)cc1.[Lu+3] [Compound 109.27] yielded pKd of 8.60 to 9.00

The molecule listed as CC(CCCC(=O)N1CCC(C(N)=O)(C(=O)NCC(=O)N2CCN(C(=O)CN3CCN(C(=O)CN4CCN(CC(=O)O)CCN(CC(=O)O)CCN(CC(=O)O)CC4)CC3)C[C@@H]2C(=O)NCCn2cc(C34CC(C(=O)Nc5nnc(S(N)(=O)=O)s5)(C3)C4)nn2)CC1)(c1ccc(O)cc1)c1ccc(O)cc1.[Lu+3] [Compound 129.3] shows pKd equal to > 9.00

The molecule listed as Cc1cc(C(=O)Nc2nnc(S(N)(=O)=O)s2)ccc1-c1cn(CCNC(=O)C2(NC(=O)CNC(=O)C3(C(N)=O)CCN(C(=O)CCCC(C)(c4ccc(O)cc4)c4ccc(O)cc4)CC3)CCN(C(=O)CN3CCN(CC(=O)O)CCN(CC(=O)O)CCN(CC(=O)O)CC3)CC2)nn1.[Lu+3] [Compound 117.7] has a reported pKd of > 9.00

NS(=O)(=O)c1nnc(NC(=O)C23CC(c4cn(CCNC(=O)[C@@H]5CN(C(=O)CN6CCN(CC(=O)O)CCN(CC(=O)O)CCN(CC(=O)O)CC6)CCN5C(=O)CNC(=O)C5(C(=O)O)CCN(C(=O)CCCc6n[nH]c7ccccc67)CC5)nn4)(C2)C3)s1.[Lu+3] [Compound 112.5] has a reported pKd of 8.00 to 8.60
